Assay: qHTS Assay for Lipid Storage Modulators in Drosophila S3 Cells;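 on cell number change: cells counted by Cell Tracker Red CMTPX staining in the red channel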
Conditions: BODIPY lipid droplet fluorescence, 18-24 h, cells fed with added oleic acid; measured here: cell count max response
Description: NIH Molecular Libraries Probe Production Centers Network [MLPCN] NIH Chemical Genomics Center [NCGC] […] Triacsin C (Sigma-Aldrich T-4540), an inhibitor of long-chain fatty acyl CoA synthetase that blocks synthesis of triglycerides, was used as a positive control for lipid under-storage. […] Fluorescence was detected by excitation of the fluorophores with a 488-nm laser on an Acumen Explorer (TTP Lab Tech). […] Cells were detected using channel 3 (575-640 nm) with 5-um width and 100-um depth filters. […]
The whole screen tested about 320,000 compounds, of which about 2,100 (0.66%) were called active. Another 53% or so got no clear call; they are omitted. What follows is part of a selection rich in actives, with near analogues and random picks from the rest.
Parameter: cell number change. Scope: all listed entries.

- MOLECULE: "CC(C)OC(=O)/C(C#N)=C\\c1cccnc1"
  cell number change / %: 5.73
- MOLECULE: "OC(CN1CCN(Cc2ccccc2)CC1)c1ccc(F)cc1 (configuration not stated)"
  cell number change / %: 22.1
- MOLECULE: "COc1ccc(NC(=O)c2ccc(C)cc2)c[n+]1[O-]"
  cell number change / %: 9.2
- MOLECULE: "COc1ccc(NC(=O)COC(=O)Cc2cccs2)cc1OC"
  cell number change / %: -0.769
- MOLECULE: "COc1ccccc1N(CC(=O)NCCc1ccccc1)C(=O)CCC(=O)Nc1nccs1"
  cell number change / %: -5.22
- MOLECULE: "CCN1CCN(c2ccc([N+](=O)[O-])c(Sc3nc4ccccc4[nH]3)c2)CC1"
  cell number change / %: -7.24
- MOLECULE: "Fc1ccc(CN2CCN(C(c3ccccc3)c3ccccc3)CC2)cc1"
  cell number change / %: -21.3
- MOLECULE: "O=C(NCCO)C1(c2ccc(Cl)cc2)CCCC1"
  cell number change / %: -14.3
- MOLECULE: "COC(=O)c1ccccc1NC(=O)COC(=O)CO/N=C(\\C)c1ccc2c(c1)OCO2"
  cell number change / %: -2.37
- MOLECULE: "CCOc1ccccc1N(CC(=O)NCc1ccco1)C(=O)CCC(=O)Nc1nccs1"
  cell number change / %: -1.71
- MOLECULE: "O=C(Nc1ccc(Oc2cccnc2)cc1)C1CCN(Cc2cccc(Cl)c2)CC1"
  cell number change / %: 27.9
- MOLECULE: "CC(C)(C)c1ccc(NC(=O)c2cc[n+]([O-])cc2)cc1"
  cell number change / %: 27.8
- MOLECULE: "O=S(=O)(NCc1cccnc1)c1ccc(Br)c2ccccc12"
  cell number change / %: 10.4
- MOLECULE: "Cc1nc(S(=O)(=O)N2CCN(C3c4ccccc4-c4ccccc43)CC2)cn1C"
  cell number change / %: 19.2
- MOLECULE: "CCc1ccccc1N(CC(=O)NCc1ccco1)C(=O)CCC(=O)Nc1nccs1"
  cell number change / %: 6.09
- MOLECULE: "CCN=C1S/C(=C\\c2cc(Br)c(O)c(OC)c2)C(=O)N1CC"
  cell number change / %: -10.5
- MOLECULE: "O=C(NCc1ccco1)C1(c2ccc(Cl)cc2)CCCC1"
  cell number change / %: 17
- MOLECULE: "CCc1cc(=O)oc2c(C)c(OCC(=O)N3CC[C@@]4(O)CCCC[C@H]4C3)ccc12"
  cell number change / %: 2.62
- MOLECULE: "CC(=O)c1ccc(Oc2cc(C(F)(F)F)cnc2C(N)=O)cc1"
  cell number change / %: 26.2
- MOLECULE: "CCc1cc(=O)oc2c(C)c(OC(C)C(=O)N3CC[C@@]4(O)CCCC[C@H]4C3)ccc12 (some centres not stated)"
  cell number change / %: 14.6
- MOLECULE: "COc1ccc(-n2nc(C(=O)NCC(=O)NCCCN3CCOCC3)c3ccccc3c2=O)cc1"
  cell number change / %: -8.11
- MOLECULE: "O=S(=O)(Nc1cccnc1)c1ccc(Br)c2ccccc12"
  cell number change / %: -5.22

====

test: qHTS Assay for Lipid Storage Modulators in Drosophila S3 Cells; details: BODIPY lipid droplet fluorescence, 18-24 h, cells fed with added oleic acid; series mostly up to 46.1 µM; further: potency means the concentration at half of the fitted maximal effect
Among all 320,000 compounds or so, about 2,100 (0.66%) were called active. Not shown: some 53% with an inconclusive outcome. The entries come from a sample that favours actives as a whole.

- CHEM_SMILES: "COc1cc2c(cc1NC(=O)c1ccc(C(C)(C)C)cc1)CCCC2"
  Potency: "16.4 µM (active)"
- CHEM_SMILES: "CC(=O)NC12CC3CC(C1)CC(C(=O)Nc1nc4c(C)cccc4s1)(C3)C2"
  Potency: "5.8 µM (active)"
- CHEM_SMILES: "O=C(CCC(=O)NNC(=O)COc1ccc(Br)cc1)NCc1ccccc1"
  Potency: "inactive"
- CHEM_SMILES: "Cc1cc(NC(=O)c2cc([N+](=O)[O-])cc([N+](=O)[O-])c2)no1"
  Potency: "inactive"
- CHEM_SMILES: "CC(=O)NC12CC3CC(C1)CC(C(=O)Nc1nc4ccc(F)cc4s1)(C3)C2"
  Potency: "inactive"
- CHEM_SMILES: "CC(C)n1cnc2c(Nc3cccc(Cl)c3)nc(NCCCO)nc21"
  Potency: "inactive"
- CHEM_SMILES: "CN(C)CCCNc1ccc(-c2cc(Nc3cccc(Cl)c3)ncn2)cn1"
  Potency: "inactive"
- CHEM_SMILES: "COc1ccc(Cl)cc1NC(=O)Nc1ccccc1C(N)=O"
  Potency: "inactive"
- CHEM_SMILES: "COc1ccccc1NC(=O)COC(=O)/C=C/c1ccc2c(c1)OCO2"
  Potency: "inactive"
- CHEM_SMILES: "COC(=O)c1cc(C(=O)N2CCc3ccccc32)cc([N+](=O)[O-])c1"
  Potency: "inactive"
- CHEM_SMILES: "COc1cc2c(cc1NC(=O)c1cccnc1)CCCC2"
  Potency: "inactive"

====

experiment: qHTS Assay for Lipid Storage Modulators in Drosophila S3 Cells; conditions: BODIPY lipid droplet fluorescence, 18-24 h, cells fed with added oleic acid; series mostly up to 46.1 µM; further: potency means the concentration at half of the fitted maximal effect
Hit rate of the full screen: of about 320,000 compounds, about 2,100 (0.66%) were called active. Another 53% or so got no clear call; they are omitted. Shown is part of a subset that was picked to be rich in actives.
REPORTED_METRIC: Potency

- COMPOUND: "Cc1ccc(OCCCC(=O)Nc2ccc(N3CCOCC3)cc2)c(C)c1"
  VALUE_MEASURED: "inactive"
- COMPOUND: "CC(C)(C)C(=O)C1=C(O)C(=O)N(Cc2ccccc2)C1c1ccccc1F (stereo unspecified)"
  VALUE_MEASURED: "inactive"
- COMPOUND: "CC(=O)C1=C(O)C(=O)N(Cc2ccccc2)C1c1ccccc1F (stereo unspecified)"
  VALUE_MEASURED: "18.4 µM (active)"
- COMPOUND: "O=S(=O)(NCc1ccccc1Cl)c1ccc(-n2cccn2)cc1"
  VALUE_MEASURED: "16.4 µM (active)"
- COMPOUND: "COCCNC(=O)C(=O)NCCN1CCOCC1"
  VALUE_MEASURED: "inactive"
- COMPOUND: "O=C1CCCC(O)=C1N=Nc1c(Cl)cc(Cl)cc1Cl"
  VALUE_MEASURED: "inactive"
- COMPOUND: "Cc1nc(Cc2ccc(OC(C)C)cc2)[nH]c(=O)c1CC(=O)O"
  VALUE_MEASURED: "inactive"
- COMPOUND: "COCCN(CC1CCCN(C2Cc3ccccc3C2)C1)C(=O)CCC(F)(F)F (stereo unspecified)"
  VALUE_MEASURED: "inactive"
- COMPOUND: "CCOC(=O)N1CCc2c(sc3nc(SC(C)C)n(N)c(=O)c23)C1"
  VALUE_MEASURED: "inactive"
- COMPOUND: "CCOC(=O)C1=C(Nc2ccc(Br)cc2)CC(C)(O)C(C(=O)OCC)C1c1ccccc1 (stereo unspecified)"
  VALUE_MEASURED: "inactive"
- COMPOUND: "CC(=O)C1=C(Nc2ccccc2)CC(C)(O)C(C(C)=O)C1c1ccccc1 (stereo unspecified)"
  VALUE_MEASURED: "inactive"

====

Listed here: items and their measured cell number change.
experiment: qHTS Assay for Lipid Storage Modulators in Drosophila S3 Cells; details: BODIPY lipid droplet fluorescence, 18-24 h, cells fed with added oleic acid; measured here: cell count max response;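 on cell number change: cells counted by Cell Tracker Red CMTPX staining in the red channel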
In all, about 320,000 compounds went through this assay and about 2,100 (0.66%) were called active. Another 53% or so got no clear call; they are omitted. This excerpt belongs to a sample that is enriched for actives.
REPORTED_METRIC: cell number change (%)

- COMPOUND: "COc1ccc(C2/C(=C(\\O)c3ccc(OC)c(Cl)c3)C(=O)C(=O)N2CCN(C)C)cc1 (stereo not given)"
  VALUE_MEASURED: 7.61
- COMPOUND: "COc1cccc(C2/C(=C(\\O)c3ccc4c(c3)OCCO4)C(=O)C(=O)N2CCN(C)C)c1 (stereo not given)"
  VALUE_MEASURED: -19.5
- COMPOUND: "CCCOc1cccc(C2/C(=C(/O)c3ccncc3)C(=O)C(=O)N2CCCN(C)C)c1 (stereo not given)"
  VALUE_MEASURED: -3.79
- COMPOUND: "Cc1[nH]n(-c2ccccc2)c(=O)c1N=Nc1ccccc1C(=O)N1CCOCC1"
  VALUE_MEASURED: -24.3
- COMPOUND: "COc1cccc(C2/C(=C(\\O)c3c(C)nc4c(C)cccn34)C(=O)C(=O)N2CCCN(C)C)c1 (stereo not given)"
  VALUE_MEASURED: -2.27
- COMPOUND: "CCc1ccccc1NC(=O)CSc1nnc(Cn2cnc3ccccc32)o1"
  VALUE_MEASURED: -13.9
- COMPOUND: "COc1ccccc1N=Nc1c(C)[nH]n(-c2ccccc2)c1=O"
  VALUE_MEASURED: 0.338
- COMPOUND: "Cc1[nH]n(-c2ccccc2)c(=O)c1N=Nc1ccc(C(N)=O)cc1"
  VALUE_MEASURED: 15.5
- COMPOUND: "O=C1COc2ccc(C(=O)CSc3ccccc3C(=O)O)cc2N1"
  VALUE_MEASURED: 8.27
- COMPOUND: "Cn1c(Cn2c3ccccc3c3ccccc32)n[nH]c1=S"
  VALUE_MEASURED: -6.36
